Assay: Terminal half life in rat at 4 mg/kg, iv measured for 24 hrs by LC-MS/MS analysis
Type: ADME, organism-based
Settings: in vivo, read-out: beta t1/2 (converted)
assay endpoint: half-life (h)
// note: answer is a bare numeric in h

Could you share which half-life value was measured for CCOc1c([C@H](C)n2nc(C)c3c(N)ncnc32)cc(Cl)c(F)c1[C@@H]1CNC(=O)C1 ?
4

====

Test: AUC in cynomolgus monkey at 1 mg/kg, po measured for 24 hrs by LC/MS/MS analysis
Format: ADME, organism-based, Macaca fascicularis
Conditions: in vivo
assay endpoint: AUC at 24 h (µM·h)
// note: answer is a bare numeric in µM·h

Could you share which AUC at 24 h value was measured for COc1c([C@H](C)n2nc(C)c3c(N)ncnc32)cc(Cl)c(C#N)c1C1CN(C[C@H](C)O)C1 ?
4.1

====

Test: Fractional unbound in human plasma
Assay type: ADME, cell-free
Assignment: determine reported fraction unbound for the given compounds.
Lab note: write the figure by itself, no unit.

Could you share which fraction unbound value was measured for COc1c(C(C)n2nc(C)c3c(N)ncnc32)cc(Cl)c(C)c1C1CCN(C)CC1 (racemic) ?
0.19

Could you share which fraction unbound value was measured for COc1c([C@H](C)n2nc(C)c3c(N)ncnc32)cc(Cl)c(C)c1-c1ccnc(C(=O)N(C)C)c1 ?
0.089

Could you share which fraction unbound value was measured for CC(Nc1ncnc2[nH]cnc12)c1ccc2cccnc2c1-c1cccc(F)c1 (racemic) ?
0.1

Could you share which fraction unbound value was measured for C[C@H](Nc1ncnc2[nH]cnc12)c1cc(Cl)c2ccnnc2c1-c1cccc(F)c1 ?
0.059

Could you share which fraction unbound value was measured for CCOc1c([C@H](C)n2nc(C)c3c(N)ncnc32)cc(Cl)c(F)c1[C@@H]1CNC(=O)C1 ?
0.058

Could you share which fraction unbound value was measured for Cc1csc2nc([C@H](C)Nc3ncnc4[nH]cnc34)c(-c3cccc(F)c3)c(=O)n12 ?
0.17

Could you share which fraction unbound value was measured for COc1c([C@H](C)Nc2ncnc(N)c2C#N)cc(Cl)c(C)c1-c1ccc(C(=O)N(C)C)cn1 ?
0.22

Could you share which fraction unbound value was measured for CCOc1c([C@H](C)n2nc(C)c3c(N)ncnc32)cc(Cl)c(C)c1C1CNC(=O)C1 (stereo partly drawn) ?
0.065

====

Experiment: AUC in rat at 4 mg/kg, po measured for 24 hrs by LC/MS/MS analysis
Type: ADME, organism-based
Settings: in vivo
assay endpoint: AUC at 24 h
Reply with the number, then its unit.

Could you share which AUC at 24 h value was measured for COc1c([C@H](C)Nc2ncnc(N)c2C#N)cc(Cl)c(C)c1-c1ccc(C(=O)N(C)C)cn1 ?
7.7 µM·h

Could you share which AUC at 24 h value was measured for COc1c([C@H](C)Nc2ncnc(N)c2C#N)cc(Cl)c(C)c1-c1cncc(S(C)(=O)=O)c1 ?
10 µM·h

====

Assignment: determine reported AUC at 24 h for the given compounds.
Assay: AUC in rat at 5 mg/kg, po measured for 24 hrs by LC/MS/MS analysis
Assay type: ADME, organism-based
Conditions: in vivo
// note: answer is a bare numeric in µM·h

Could you share which AUC at 24 h value was measured for COc1c([C@H](C)Nc2ncnc3[nH]cnc23)cc(Cl)c(C)c1-c1cncc(S(C)(=O)=O)c1 ?
3

Could you share which AUC at 24 h value was measured for Cc1csc2nc([C@H](C)Nc3ncnc4[nH]cnc34)c(-c3cccc(F)c3)c(=O)n12 ?
4.4

Could you share which AUC at 24 h value was measured for C[C@H](Nc1ncnc2[nH]cnc12)c1cc(Cl)c2ccnnc2c1-c1cccc(F)c1 ?
13

Could you share which AUC at 24 h value was measured for COc1c([C@H](C)n2nc(C)c3c(N)ncnc32)cc(Cl)c(C#N)c1C1CN(C[C@H](C)O)C1 ?
6.8
